Test: Drug excretion in human urine at 0.46 mg/kg dosed-dermally measured for 24 hrs
Type: ADME, organism-based
Test settings: topical or ocular, read-out: Drug excretion
Measured parameter: dose excreted at 24 h (%)

> print(dat)
                                   compound  unit.symbol  recorded.number
1  CC(CC=O)CCCC(C)(C)O (stereo unspecified)            %               90

* * *

Test: Cmax in human at 20 mg, po measured up to 240 hrs by HPLC method
Type: ADME, organism-based
Set-up: route oral, dose 20 mg, time <=240
Test settings: in vivo
Measured parameter: Cmax (nM)

> print(dat)
                              record.smiles  unit.symbol  recorded.number
1  Cc1cc2c(C(C)C)c(O)c(O)c(C=O)c2c(O)c1-c1c(C)cc2c(C(C)C)c(O)c(O)c(C=O)c2c1O           nM             1750

The reported measurements were obtained from ChEMBL document CHEMBL4813910.
